src = ChEMBL document CHEMBL4020729

# System: MDA-MB-231
# assay_notes: Antiproliferative activity against human MDA-MB-231 cells after 48 hrs by SRB assay
# Format: functional, cell-based
# assay_conditions: MDA-MB-231, 48 h
experimental_readout: IC50

compound: CC(=O)O[C@@H]1C[C@H]2C(C)(C)C(=O)C=C[C@]2(C)[C@H]2CC[C@@]3(C)[C@H](c4ccoc4)C(O)[C@H]4O[C@]43[C@@]21C (stereo partly drawn)
experimental_readout: IC50
result: 47.8 µM
--
compound: CC1(C)C(=O)C2OC2[C@]2(C)[C@H]3CC[C@@]4(C)[C@H](c5ccoc5)C(=O)[C@H]5O[C@]54[C@]3(C)C(=O)C[C@@H]12 (stereo partly drawn)
experimental_readout: IC50
result: > 100 µM
--
compound: CCC(=O)Nc1ccc(-n2cc(CO/N=C3/[C@H]4O[C@]45[C@@]4(C)[C@H](CC[C@@]5(C)[C@@H]3c3ccoc3)[C@@]3(C)C=CC(=O)C(C)(C)[C@@H]3C[C@H]4OC(C)=O)nn2)cc1
experimental_readout: IC50
result: > 100 µM
